Origin of the recorded values: PubChem BioAssay (NCI)

- System: HT29 colon
- method: NCI tumour cell line growth inhibition, 48 h; in the data active = GI50 below about 0.43 µM; inactive = the rest
Assign a class; possible classes are active, inactive

Consider the following illustrative entries.
- compound: "O=C(Cc1ccc(/C=C/C(=O)c2ncc[nH]2)cc1)Nc1ccc(F)cc1"
  assigned-class: "inactive"
- compound: "CS(=O)(=O)Nc1cncc(-c2ccc3ncnc(Nc4ccc(F)c(Cl)c4)c3c2)c1"
  assigned-class: "inactive"
- compound: "CCN(CCCN(C)C)Cc1cc(I)cc(C)c1O"
  assigned-class: "inactive"
- compound: "CC(C)(C)c1ccc(S(=O)(=O)Oc2ccc3c4c(c(=O)oc3c2)CCCCC4)cc1"
  assigned-class: "inactive"
- compound: "CCOC(=O)c1cc(C(=O)c2cc(OC)c(OC)c(OC)c2)n2ncccc12"
  assigned-class: "active"

Query: Recorded test call requested for `N.N.N.N.N.[Co+3].[I-].[N-]=[N+]=[N-]`
Result: inactive

Query: Called result for `Cc1cc(O)c(=O)cc2c1C[C@H]1CC(C)(C)/C=C/C[C@]3(C)Oc4cc(=O)c(O)cc(C)c4C[C@H]3C[C@H](O)[C@@]1(C)O2`
Result: active

Query: What is the recorded call for this compound in the test? `O=C(CC(Cl)=C(Cl)Cl)Nc1ccccc1`
Result: inactive

Query: # lookup: test call for `CC(=O)c1ccc2c(c1)c1cc(C(C)=O)ccc1n2CCNC(C)C`
Result: active

Query: Can you look up the reported call for `NS(=O)(=O)c1ccc(Nc2cc(-c3cccc(O)c3)[nH]n2)cc1` for me?
Result: inactive

Query: Kindly provide the recorded test outcome for the following compound: `Fc1cc2[nH]ncc2c2c3c(c(-c4cn[nH]c4C(F)(F)F)nc12)CCCC3`
Result: inactive

Query: Test call for this compound, please: `Fc1cccc(COc2ccc(Nc3ncnc4sc(-c5cccs5)cc34)cc2Cl)c1`
Result: inactive

Query: Dear all, I need the recorded test outcome for `CC(=O)Nc1ccc2c(c1)C(c1ccccc1Cl)=Nc1c(n[nH]c1C)N2` , thank you.
Result: inactive

Query: How did this test come out for CC(N)C(Cc1ccc(Cl)cc1)c1ccc(Cl)cc1 (centres undefined) ?
Result: inactive
